- assay-target: T1, human Trophoblast cell surface antigen 2 (TROP2) (human, UniProt P09758 27-274, limits assumed)
- T1 construct: Analyte in the SPR experiments and immunogen; also called human TROP2
- T1 sequence: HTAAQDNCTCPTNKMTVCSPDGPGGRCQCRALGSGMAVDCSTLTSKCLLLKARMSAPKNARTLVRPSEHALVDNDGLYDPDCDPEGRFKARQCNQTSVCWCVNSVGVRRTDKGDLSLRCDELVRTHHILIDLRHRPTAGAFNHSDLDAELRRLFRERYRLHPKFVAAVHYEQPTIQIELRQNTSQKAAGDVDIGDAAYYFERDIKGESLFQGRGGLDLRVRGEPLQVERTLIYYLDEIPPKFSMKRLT
- assay-explanation: SPR affinity ranking, human TROP2
kon overview
metric-name: kon (M⁻¹ s⁻¹)

HC2/LC2 (antibody, human IgG1, kappa, V domains shown, Humanized anti-TROP2 antibody) VH: QVQLVQSGAEVKKPGASVKVSCKASGYTFTDYSINWVRQAPGQGLEWMGVISTYYGDASYNQKFKGRVTMTRDTSTSTVYMELSSLRSEDTAVYYCARYGDGYNQFDYWGQGTLVTVSS VL: DVVMTQSPLSLPVTLGQPASISCRVSESVDSYGNNFMHWFQQRPGQSPRRLIYRASNLESGVPDRFSGSGSGTDFTLKISRVEAEDVGVYYCQQSYEDPYTFGGGTKVEIKR : 24900
HC3/LC1 (antibody, human IgG1, kappa, V domains shown, Humanized anti-TROP2 antibody) VH: QVQLVQSGAEVKKPGASVKVSCKASGYTFTDYSINWVRQAPGQRLEWMGVISTYYGDASYNQKFKGRVTITRDTSASTAYMELSSLRSEDTAVYYCARYGDGYNQFDYWGQGTLVTVSS VL: DIVMTQSPDSLAVSLGERATINCRVSESVDSYGNNFMHWYQQKPGQPPKLLIYRASNLESGVPDRFSGSGSGTDFTLTISSLQAEDVAVYYCQQSYEDPYTFGQGTKLEIKR : 1.65e+06
HC5/LC2 (antibody, human IgG1, kappa, V domains shown, Humanized anti-TROP2 antibody) VH: EVQLVQSGAEVKKPGESLKISCKGSGYTFTDYSINWVRQMPGKGLEWMGVISTYYGDASYNQKFKGQVTISADKSISTAYLQWSSLKASDTAMYYCARYGDGYNQFDYWGQGTLVTVSS VL: DVVMTQSPLSLPVTLGQPASISCRVSESVDSYGNNFMHWFQQRPGQSPRRLIYRASNLESGVPDRFSGSGSGTDFTLKISRVEAEDVGVYYCQQSYEDPYTFGGGTKVEIKR : 261000
HC4/LC5 (antibody, human IgG1, kappa, V domains shown, Humanized anti-TROP2 antibody; also called DP002-HC4LC5; DP002HC4LC5) VH: QVQLVQSGAEVKKPGSSVKVSCKASGYTFTDYSINWVRQAPGQGLEWMGVISTYYGDASYNQKFKGRVTITADESTSTAYMELSSLRSEDTAVYYCARYGDGYNQFDYWGQGTLVTVSS VL: DIQMTQSPSSLSASVGDRVTITCRVSESVDSYGNNFMHWYQQKPGKAPKLLIYRASNLESGVPSRFSGSGSGTDFTFTISSLQPEDIATYYCQQSYEDPYTFGGGTKLEIKR : 1.72e+06
HC2/LC5 (antibody, human IgG1, kappa, V domains shown, Humanized anti-TROP2 antibody) VH: QVQLVQSGAEVKKPGASVKVSCKASGYTFTDYSINWVRQAPGQGLEWMGVISTYYGDASYNQKFKGRVTMTRDTSTSTVYMELSSLRSEDTAVYYCARYGDGYNQFDYWGQGTLVTVSS VL: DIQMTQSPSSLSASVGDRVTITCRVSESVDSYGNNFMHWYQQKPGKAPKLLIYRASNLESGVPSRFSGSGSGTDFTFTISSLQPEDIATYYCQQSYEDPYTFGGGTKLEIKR : 1.42e+06
HC5/LC5 (antibody, human IgG1, kappa, V domains shown, Humanized anti-TROP2 antibody) VH: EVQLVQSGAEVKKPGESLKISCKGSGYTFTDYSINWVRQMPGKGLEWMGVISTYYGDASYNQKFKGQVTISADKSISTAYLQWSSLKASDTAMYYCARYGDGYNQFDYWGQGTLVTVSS VL: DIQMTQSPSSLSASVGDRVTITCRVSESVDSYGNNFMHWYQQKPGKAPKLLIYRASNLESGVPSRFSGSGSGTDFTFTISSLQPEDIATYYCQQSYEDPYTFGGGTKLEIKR : 1.42e+06
HC2/LC4 (antibody, human IgG1, kappa, V domains shown, Humanized anti-TROP2 antibody) VH: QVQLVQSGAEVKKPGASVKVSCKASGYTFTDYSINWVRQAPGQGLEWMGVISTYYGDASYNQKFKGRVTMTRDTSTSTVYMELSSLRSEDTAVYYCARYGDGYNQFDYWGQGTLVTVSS VL: EIVLTQSPATLSLSPGERATLSCRVSESVDSYGNNFMHWYQQKPGQAPRLLIYRASNLESGIPARFSGSGSGTDFTLTISSLEPEDFAVYYCQQSYEDPYTFGGGTKVEIKR : 1.46e+06
HC3/LC4 (antibody, human IgG1, kappa, V domains shown, Humanized anti-TROP2 antibody) VH: QVQLVQSGAEVKKPGASVKVSCKASGYTFTDYSINWVRQAPGQRLEWMGVISTYYGDASYNQKFKGRVTITRDTSASTAYMELSSLRSEDTAVYYCARYGDGYNQFDYWGQGTLVTVSS VL: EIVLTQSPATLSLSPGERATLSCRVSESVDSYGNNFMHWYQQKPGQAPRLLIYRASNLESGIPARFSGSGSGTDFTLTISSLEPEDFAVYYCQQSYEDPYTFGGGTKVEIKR : 1.37e+06
HC2/LC1 (antibody, human IgG1, kappa, V domains shown, Humanized anti-TROP2 antibody) VH: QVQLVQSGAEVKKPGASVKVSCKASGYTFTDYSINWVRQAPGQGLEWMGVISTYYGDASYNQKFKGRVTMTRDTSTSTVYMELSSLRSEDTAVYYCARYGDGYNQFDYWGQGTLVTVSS VL: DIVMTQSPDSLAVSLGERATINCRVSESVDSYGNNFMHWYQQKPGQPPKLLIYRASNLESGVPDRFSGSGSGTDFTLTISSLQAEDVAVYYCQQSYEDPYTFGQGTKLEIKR : 1.54e+06
